- measurement_notes: MELAS cybrid and Rieske KO viability enhancers – cell-based, MELAS cybrids, Rieske KO mouse fibroblasts, CellTiter-Glo, primary screen (AID 1508586);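 also: test concentration not given here; z relative to plate mean and SD of compound and empty wells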
- reported_conditions: Rieske KO mouse fibroblast survival, low glucose, CellTiter-Glo 72 h
property_measured: z-score

{"molecule": "Cc1ccc(S(=O)(=O)C=CC#N)cc1", "z-score": -0.608}
{"molecule": "CN(C)CCC(CSc1ccccc1)Nc1ccc(S(=O)(=O)NC(=O)c2ccc(N3CCN(Cc4ccccc4-c4ccc(Cl)cc4)CC3)cc2)cc1[N+](=O)[O-] (stereo unspecified)", "z-score": -2.14}

Which z-score value is on record for COc1ccc(CC2c3cc(OC)c(OC)cc3CC[N@+]2(C)CCC(=O)OCCCCCOC(=O)CC[N@@+]2(C)CCc3cc(OC)c(OC)cc3C2Cc2ccc(OC)c(OC)c2)cc1OC (stereo partly specified) ?
0.533

And "O=C1CN(C(=O)c2ccncc2)CCN1Cc1ccc2c(c1)OCO2" ?
-0.568

And "CCOC(=O)c1nn(Cc2ccc(OC)cc2)c2c1CN(C(=O)CSc1ncccn1)CC2" ?
-0.456

And "[K+]" ?
0.0929

And "C[C@]1(C(=O)Nc2ccc(F)nc2)CCCN1c1nc(Nc2cc(C3CC3)[nH]n2)c2cccn2n1" ?
-2.24

Numbers sourced from PubChem BioAssay.
